- experimental system: Prostaglandin G/H synthase 1 (Ovis aries)
- conditions used: at 500 µM
readout kind: Control (%)

>  <line notation>
O=C(CC(=O)Nc1ccc(O)cc1)Nc1ccc(O)cc1

>  <experimental system>
Prostaglandin G/H synthase 1 (Ovis aries)

>  <Control (%)>
25

$$$$

[a] O=C(CC(=O)Nc1ccc(Cl)cc1)Nc1ccc(Cl)cc1
[b] CCCCC(C(=O)Nc1ccc(C)cc1)C(=O)Nc1ccc(C)cc1
[c] O=C(CCCCC(=O)Nc1ccc(O)cc1)Nc1ccc(O)cc1
Please list these in order of increasing Control. Thank you! Answer by listing the labels in the order asked for.
c, a, b

[a] O=C(CC(=O)Nc1ccccc1)Nc1ccccc1
[b] CCCCC(C(=O)Nc1ccc(O)cc1)C(=O)Nc1ccc(O)cc1
Of the pair a and b , name the member with the lesser recorded Control. Returns: label corresponding to the selected item.
b
(b: 36%, a: 55%)

---

- experimental system: Prostaglandin G/H synthase 1 (Ovis aries) (UniProt P05979)
- Sequence (P05979 whole entry, looked up): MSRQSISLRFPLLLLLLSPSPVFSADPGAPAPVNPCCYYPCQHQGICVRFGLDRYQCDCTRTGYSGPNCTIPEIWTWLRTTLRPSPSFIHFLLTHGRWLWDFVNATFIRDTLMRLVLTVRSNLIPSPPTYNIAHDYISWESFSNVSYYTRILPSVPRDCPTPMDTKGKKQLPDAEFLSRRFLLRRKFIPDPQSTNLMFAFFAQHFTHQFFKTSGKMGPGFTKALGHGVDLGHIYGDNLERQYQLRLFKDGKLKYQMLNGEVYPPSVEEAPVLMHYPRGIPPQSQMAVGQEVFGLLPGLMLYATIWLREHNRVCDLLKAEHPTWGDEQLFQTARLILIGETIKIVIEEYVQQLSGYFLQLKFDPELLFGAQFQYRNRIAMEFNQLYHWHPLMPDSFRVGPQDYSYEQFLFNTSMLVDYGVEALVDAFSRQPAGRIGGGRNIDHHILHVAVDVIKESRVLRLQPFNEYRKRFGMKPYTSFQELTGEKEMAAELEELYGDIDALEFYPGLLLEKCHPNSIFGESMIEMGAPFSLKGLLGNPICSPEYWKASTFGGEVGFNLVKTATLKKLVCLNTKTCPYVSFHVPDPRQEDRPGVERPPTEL
- assay comment: Inhibition of microsomal PGH synthase isolated from sheep seminal vesicles (SSV) estimated as rate of oxygen consumption in presence of 500 uM of the compound
- Parameters: scale not given: the % may be the effect or the level left
readout kind: Control (%)

>  <line notation>
CCCCC(C(=O)Nc1ccc(O)cc1C)C(=O)Nc1ccc(O)cc1C

>  <Control [%]>
31

$$$$
>  <line notation>
O=C(CC(=O)Nc1ccc([N+](=O)[O-])cc1)Nc1ccc([N+](=O)[O-])cc1

>  <Control [%]>
88

$$$$

[A] Cc1ccc(NC(=O)CC(=O)Nc2ccc(C)cc2)cc1
[B] O=C(CCC(=O)Nc1ccc(O)cc1)Nc1ccc(O)cc1
Lab note: check whether A or B shows the higher recorded Control. Returns: label corresponding to the selected item.
A

Origin of measurements: ChEMBL document CHEMBL1123683
